Origin of measurements: paper PMC5777261

# target-or-test-system: T1, ACKR3 R142A-YFP (UniProt P25106 1-362, R142A)
# T1 construct: ACKR3 (CXCR7) with R142A (Ballesteros-Weinstein 3.50), made by PCR in ACKR3-YFP; also called R142^3.50A; ACKR3 R142^3.50A; source: HEK293, transiently transfected (polyethyleneimine), on or in cells; not shown: YFP, C-terminal, kept
# T1 sequence (P25106 whole entry R142A): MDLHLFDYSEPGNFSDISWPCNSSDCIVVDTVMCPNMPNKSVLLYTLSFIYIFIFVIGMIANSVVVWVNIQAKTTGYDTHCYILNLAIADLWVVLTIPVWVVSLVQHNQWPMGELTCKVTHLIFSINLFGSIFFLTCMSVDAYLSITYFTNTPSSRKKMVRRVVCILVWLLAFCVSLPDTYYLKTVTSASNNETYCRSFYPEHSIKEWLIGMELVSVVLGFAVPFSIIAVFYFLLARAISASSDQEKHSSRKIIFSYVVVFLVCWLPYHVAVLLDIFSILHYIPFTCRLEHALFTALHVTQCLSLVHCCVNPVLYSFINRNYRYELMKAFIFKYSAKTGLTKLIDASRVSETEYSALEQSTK
# assay-info: radioligand binding; HEK293 cells expressing ACKR3-YFP or mutants, pretreated 5 min at 37 °C with 100 μM phenylarsine oxide; 50 pM 125I-CXCL12 tracer in 50 mM HEPES pH 7.4, 5 mM MgCl2, 1 mM CaCl2, 0.2% BSA, with or without unlabeled CXCL12 or CXCL11, 30 min at 37 °C; bound label counted in a γ counter; IC50 taken as proxy for ligand affinity
# condition-description: one partner purified
measure: IC50 (nM)
A number alone suffices; assume nM.

input: May I ask what IC50 has been recorded for CXCL11 (unlabeled recombinant chemokine) (ligand, human, UniProt O14625 22-94, looked up, chemokine CXCL11 (I-TAC); called human CXCL11 in the text on scavenging by MEFs; also called I-TAC; unlabeled CXCL11; source: recombinant; gift from Amanda Nevins and Brian Volkman or from PeproTech Inc) FPMFKRGRCLCIGPGVKAVKVADIEKASIMYPSNNCDKIEVIITLKENKGQRCLNPKSKQARLIIKKVERKNF ?
output: 44.8
